Molecular target: UniProt Q96RR4
Assay: CAMKKb kinase selectivity assay
Assay type: biochemical
Settings: 1 μM inhibitor concentration
MEASURED ENDPOINT: percentage inhibition of CAMKKb (percentage)
Express it in percentage; write the number only.

Qu. Supply measured percentage inhibition of CAMKKb of c1cc2[nH]nc3c2c(n1)N(C1CCOCC1)CCC3 in your reply.
Ans. 0

Qu. Supply measured percentage inhibition of CAMKKb of CN1CCC(N2Cc3ccccc3-c3n[nH]c4ccnc2c34)CC1 in your reply.
Ans. 0

Qu. Supply measured percentage inhibition of CAMKKb of c1cc2[nH]nc3c2c(n1)N(C1CCC1)CCC3 in your reply.
Ans. 5

Qu. Supply measured percentage inhibition of CAMKKb of CC(C)n1ncc2c1CN(C1CCN(C)CC1)c1nccc3[nH]nc-2c13 in your reply.
Ans. 0

Qu. Supply measured percentage inhibition of CAMKKb of c1cc2[nH]nc3c2c(n1)N(C1CCCC1)CCC3 in your reply.
Ans. 7

* * *

Kindly supply the reported percentage inhibition of S6K1 values for the records listed here.
Molecular target: S6K1 (Homo sapiens (Human))
Sequence (P23443 whole entry, species assumed): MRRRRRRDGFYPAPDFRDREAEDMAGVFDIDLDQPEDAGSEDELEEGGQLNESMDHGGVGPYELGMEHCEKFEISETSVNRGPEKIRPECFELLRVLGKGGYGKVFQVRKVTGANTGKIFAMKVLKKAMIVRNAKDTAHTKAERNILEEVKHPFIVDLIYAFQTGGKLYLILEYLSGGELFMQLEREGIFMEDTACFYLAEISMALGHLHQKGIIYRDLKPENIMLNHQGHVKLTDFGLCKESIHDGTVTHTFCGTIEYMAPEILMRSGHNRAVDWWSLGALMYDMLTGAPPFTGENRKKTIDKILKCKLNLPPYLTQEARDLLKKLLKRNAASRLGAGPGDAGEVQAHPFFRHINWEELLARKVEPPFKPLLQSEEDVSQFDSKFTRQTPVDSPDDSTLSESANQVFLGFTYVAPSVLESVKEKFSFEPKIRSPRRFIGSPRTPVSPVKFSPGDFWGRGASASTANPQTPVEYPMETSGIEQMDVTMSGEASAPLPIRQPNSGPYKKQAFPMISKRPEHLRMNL
Assay: S6K1 kinase selectivity assay
Type: biochemical
Conditions: 1 μM inhibitor concentration
Express it in percentage; write the number only.

Qu. Supply measured percentage inhibition of S6K1 of CN1CCC(N2Cc3ccccc3-c3n[nH]c4ccnc2c34)CC1 in your reply.
Ans. 17

Qu. Supply measured percentage inhibition of S6K1 of c1cc2[nH]nc3c2c(n1)N(C1CCC1)CCC3 in your reply.
Ans. 0

Qu. Supply measured percentage inhibition of S6K1 of c1cc2[nH]nc3c2c(n1)N(C1CCOCC1)CCC3 in your reply.
Ans. 2

Qu. Supply measured percentage inhibition of S6K1 of c1cc2[nH]nc3c2c(n1)N(C1CCCC1)CCC3 in your reply.
Ans. 0

Qu. Supply measured percentage inhibition of S6K1 of CC(C)n1ncc2c1CN(C1CCN(C)CC1)c1nccc3[nH]nc-2c13 in your reply.
Ans. 0

* * *

Biological target: LRRK2 G2019S (Homo sapiens (Human), UniProt Q5S007, G2019S)
Sequence (Q5S007 970-2527 G2019S): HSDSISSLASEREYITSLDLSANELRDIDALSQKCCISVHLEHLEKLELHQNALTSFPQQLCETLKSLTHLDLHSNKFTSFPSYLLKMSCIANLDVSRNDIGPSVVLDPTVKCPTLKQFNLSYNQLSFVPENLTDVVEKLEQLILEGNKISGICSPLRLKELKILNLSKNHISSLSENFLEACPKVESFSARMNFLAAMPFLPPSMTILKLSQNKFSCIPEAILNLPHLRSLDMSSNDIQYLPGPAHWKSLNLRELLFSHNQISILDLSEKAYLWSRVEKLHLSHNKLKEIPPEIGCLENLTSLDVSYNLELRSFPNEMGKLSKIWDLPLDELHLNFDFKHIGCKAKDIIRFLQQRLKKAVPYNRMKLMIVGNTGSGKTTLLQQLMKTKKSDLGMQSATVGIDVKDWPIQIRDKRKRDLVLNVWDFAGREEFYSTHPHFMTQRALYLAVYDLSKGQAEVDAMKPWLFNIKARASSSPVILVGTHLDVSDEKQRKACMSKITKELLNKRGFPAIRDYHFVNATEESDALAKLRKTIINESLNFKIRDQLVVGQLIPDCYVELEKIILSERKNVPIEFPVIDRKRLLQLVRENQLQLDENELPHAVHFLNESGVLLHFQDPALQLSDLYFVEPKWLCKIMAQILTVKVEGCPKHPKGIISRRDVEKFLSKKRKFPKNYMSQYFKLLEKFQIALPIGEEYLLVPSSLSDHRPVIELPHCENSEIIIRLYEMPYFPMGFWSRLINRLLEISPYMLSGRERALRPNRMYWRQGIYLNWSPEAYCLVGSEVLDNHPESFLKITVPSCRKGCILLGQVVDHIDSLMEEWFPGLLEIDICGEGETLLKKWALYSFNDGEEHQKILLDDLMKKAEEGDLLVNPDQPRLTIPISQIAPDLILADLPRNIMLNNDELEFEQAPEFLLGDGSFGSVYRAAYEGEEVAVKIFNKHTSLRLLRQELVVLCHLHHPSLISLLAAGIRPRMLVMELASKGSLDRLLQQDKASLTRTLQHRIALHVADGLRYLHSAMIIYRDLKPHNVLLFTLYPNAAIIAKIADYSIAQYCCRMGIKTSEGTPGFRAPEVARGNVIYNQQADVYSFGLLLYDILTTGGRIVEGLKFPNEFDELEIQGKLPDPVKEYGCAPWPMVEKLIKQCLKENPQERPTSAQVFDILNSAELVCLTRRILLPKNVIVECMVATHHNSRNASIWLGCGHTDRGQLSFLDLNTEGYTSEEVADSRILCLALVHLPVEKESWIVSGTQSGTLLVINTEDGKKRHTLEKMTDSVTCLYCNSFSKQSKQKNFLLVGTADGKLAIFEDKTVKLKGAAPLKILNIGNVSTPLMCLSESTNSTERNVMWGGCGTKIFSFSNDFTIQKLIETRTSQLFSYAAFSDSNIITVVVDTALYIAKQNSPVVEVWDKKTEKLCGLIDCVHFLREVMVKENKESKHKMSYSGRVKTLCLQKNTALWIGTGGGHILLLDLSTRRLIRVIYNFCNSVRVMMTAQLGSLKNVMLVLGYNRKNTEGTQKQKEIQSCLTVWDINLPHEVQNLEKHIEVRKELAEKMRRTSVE
Assay: Adapta Kinase Assay (LRRK2_IC50 assay)
Settings: inhibition of LRRK2 G2019S
MEASURED ENDPOINT: IC50 (nM)
Express it in nM; write the number only.

Qu. Supply measured IC50 of CN1CCCc2n[nH]c3ccnc1c23 [Example 16] in your reply.
Ans. 3000

Qu. Supply measured IC50 of c1ccc(N2Cc3ccccc3-c3n[nH]c4ccnc2c34)cc1 [Example 53] in your reply.
Ans. 33

Qu. Supply measured IC50 of c1ccc2c(c1)CN(C1CCCC1)c1nccc3[nH]nc-2c13 [Example 52] in your reply.
Ans. 33

Qu. Supply measured IC50 of Cn1cc2c(n1)CN(C1CCOCC1)c1nccc3[nH]nc-2c13 [Example 70] in your reply.
Ans. 23

Qu. Supply measured IC50 of CC(C)N1CCC(N2Cc3nn(C)cc3-c3n[nH]c4ccnc2c34)CC1 [Example 82] in your reply.
Ans. 39

Qu. Supply measured IC50 of CC(C)CN1CCCc2n[nH]c3ccnc1c23 [Example 20] in your reply.
Ans. 450

Qu. Supply measured IC50 of CN1CCC(N2CCCc3n[nH]c4ccnc2c34)CC1 [Example 26] in your reply.
Ans. 91

Qu. Supply measured IC50 of CC(C)n1cc2c(n1)CN(C1CCN(C)CC1)c1nccc3[nH]nc-2c13 [Example 81] in your reply.
Ans. 40

Qu. Supply measured IC50 of OCCN1CCCc2n[nH]c3ccnc1c23 [Example 28] in your reply.
Ans. 570

Qu. Supply measured IC50 of c1cc2[nH]nc3c2c(n1)N(C1CCOCC1)CCC3 [Example 29] in your reply.
Ans. 150

* * *

Target: CK1δ (Homo sapiens (Human), UniProt P48730)
Sequence (P48730 whole entry): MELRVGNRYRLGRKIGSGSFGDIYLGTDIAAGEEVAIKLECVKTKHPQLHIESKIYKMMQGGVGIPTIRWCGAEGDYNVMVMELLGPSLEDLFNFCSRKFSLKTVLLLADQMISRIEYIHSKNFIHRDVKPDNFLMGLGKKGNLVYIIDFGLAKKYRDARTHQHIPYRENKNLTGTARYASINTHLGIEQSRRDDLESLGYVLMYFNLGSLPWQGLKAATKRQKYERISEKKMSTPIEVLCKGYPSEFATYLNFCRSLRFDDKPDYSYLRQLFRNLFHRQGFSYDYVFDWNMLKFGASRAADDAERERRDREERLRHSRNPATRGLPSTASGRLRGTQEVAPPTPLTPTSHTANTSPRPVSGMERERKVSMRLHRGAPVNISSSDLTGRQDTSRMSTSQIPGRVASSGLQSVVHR
Assay: CK1 kinase selectivity assay
Assay type: biochemical
Settings: 1 μM inhibitor concentration
MEASURED ENDPOINT: percentage inhibition of CK1δ (percentage)
Express it in percentage; write the number only.

Qu. For CK1δ (Homo sapiens (Human), UniProt P48730), give percentage inhibition of CK1δ of the listed molecule: CN1CCC(N2Cc3ccccc3-c3n[nH]c4ccnc2c34)CC1 [Example 55]
Ans. 12

Qu. For CK1δ (Homo sapiens (Human), UniProt P48730), give percentage inhibition of CK1δ of the listed molecule: c1cc2[nH]nc3c2c(n1)N(C1CCOCC1)CCC3 [Example 29]
Ans. 11

Qu. For CK1δ (Homo sapiens (Human), UniProt P48730), give percentage inhibition of CK1δ of the listed molecule: c1cc2[nH]nc3c2c(n1)N(C1CCCC1)CCC3 [Example 23]
Ans. 0

Qu. For CK1δ (Homo sapiens (Human), UniProt P48730), give percentage inhibition of CK1δ of the listed molecule: CC(C)n1ncc2c1CN(C1CCN(C)CC1)c1nccc3[nH]nc-2c13 [Example 68]
Ans. 3

Qu. For CK1δ (Homo sapiens (Human), UniProt P48730), give percentage inhibition of CK1δ of the listed molecule: c1cc2[nH]nc3c2c(n1)N(C1CCC1)CCC3 [Example 22]
Ans. 0

* * *

Biological target: MARK3 (Homo sapiens (Human))
Sequence (P27448 whole entry, species assumed): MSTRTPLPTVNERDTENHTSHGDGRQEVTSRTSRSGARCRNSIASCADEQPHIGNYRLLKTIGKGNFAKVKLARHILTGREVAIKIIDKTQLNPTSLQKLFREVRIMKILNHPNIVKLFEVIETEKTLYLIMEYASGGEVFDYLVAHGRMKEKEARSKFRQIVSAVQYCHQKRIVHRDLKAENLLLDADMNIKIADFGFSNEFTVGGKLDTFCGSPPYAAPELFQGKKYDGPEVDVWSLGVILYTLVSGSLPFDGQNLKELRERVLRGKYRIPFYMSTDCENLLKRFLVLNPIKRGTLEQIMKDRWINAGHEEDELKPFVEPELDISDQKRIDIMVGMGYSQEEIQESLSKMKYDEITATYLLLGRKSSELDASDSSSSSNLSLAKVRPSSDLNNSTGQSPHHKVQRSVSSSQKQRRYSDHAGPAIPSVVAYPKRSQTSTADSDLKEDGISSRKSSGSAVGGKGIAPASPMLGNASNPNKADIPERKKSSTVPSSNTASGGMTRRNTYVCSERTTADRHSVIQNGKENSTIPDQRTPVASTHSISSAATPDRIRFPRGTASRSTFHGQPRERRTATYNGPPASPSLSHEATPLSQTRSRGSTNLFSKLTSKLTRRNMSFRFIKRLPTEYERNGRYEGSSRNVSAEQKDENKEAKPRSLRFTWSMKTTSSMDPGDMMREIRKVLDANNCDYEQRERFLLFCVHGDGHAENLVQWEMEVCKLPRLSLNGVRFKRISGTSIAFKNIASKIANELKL
Assay: MARK3 kinase selectivity assay
Assay type: biochemical
Conditions: 1 μM inhibitor concentration
MEASURED ENDPOINT: percentage inhibition of MARK3 (percentage)
Express it in percentage; write the number only.

Qu. Supply measured percentage inhibition of MARK3 of CN1CCC(N2Cc3ccccc3-c3n[nH]c4ccnc2c34)CC1 in your reply.
Ans. 47

Qu. Supply measured percentage inhibition of MARK3 of c1cc2[nH]nc3c2c(n1)N(C1CCOCC1)CCC3 in your reply.
Ans. 13

Qu. Supply measured percentage inhibition of MARK3 of c1cc2[nH]nc3c2c(n1)N(C1CCCC1)CCC3 in your reply.
Ans. 0

Qu. Supply measured percentage inhibition of MARK3 of CC(C)n1ncc2c1CN(C1CCN(C)CC1)c1nccc3[nH]nc-2c13 in your reply.
Ans. 43

Qu. Supply measured percentage inhibition of MARK3 of c1cc2[nH]nc3c2c(n1)N(C1CCC1)CCC3 in your reply.
Ans. 1

* * *

Kindly supply the reported percentage inhibition of PRAK values for the records listed here.
Molecular target: PRAK (Homo sapiens (Human), UniProt Q8IW41)
Sequence (Q8IW41 whole entry, species assumed): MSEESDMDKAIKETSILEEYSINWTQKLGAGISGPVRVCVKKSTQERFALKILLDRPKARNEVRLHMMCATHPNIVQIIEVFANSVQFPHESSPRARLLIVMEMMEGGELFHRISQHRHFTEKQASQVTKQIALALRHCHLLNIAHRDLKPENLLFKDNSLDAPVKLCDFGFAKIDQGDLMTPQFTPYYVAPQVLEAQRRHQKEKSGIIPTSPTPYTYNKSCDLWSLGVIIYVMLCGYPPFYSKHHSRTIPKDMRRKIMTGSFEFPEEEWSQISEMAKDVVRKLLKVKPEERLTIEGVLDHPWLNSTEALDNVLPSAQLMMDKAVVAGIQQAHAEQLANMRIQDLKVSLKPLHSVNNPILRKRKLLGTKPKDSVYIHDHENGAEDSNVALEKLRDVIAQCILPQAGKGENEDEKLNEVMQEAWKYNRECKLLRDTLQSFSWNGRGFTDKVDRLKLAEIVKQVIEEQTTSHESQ
Test: PRAK kinase selectivity assay
Type: biochemical
Conditions: 1 μM inhibitor concentration
Express it in percentage; write the number only.

Qu. For PRAK (Homo sapiens (Human), UniProt Q8IW41), give percentage inhibition of PRAK of the listed molecule: c1cc2[nH]nc3c2c(n1)N(C1CCC1)CCC3
Ans. 0

Qu. For PRAK (Homo sapiens (Human), UniProt Q8IW41), give percentage inhibition of PRAK of the listed molecule: c1cc2[nH]nc3c2c(n1)N(C1CCCC1)CCC3
Ans. 0

Qu. For PRAK (Homo sapiens (Human), UniProt Q8IW41), give percentage inhibition of PRAK of the listed molecule: CC(C)n1ncc2c1CN(C1CCN(C)CC1)c1nccc3[nH]nc-2c13
Ans. 13

Qu. For PRAK (Homo sapiens (Human), UniProt Q8IW41), give percentage inhibition of PRAK of the listed molecule: CN1CCC(N2Cc3ccccc3-c3n[nH]c4ccnc2c34)CC1
Ans. 18

Qu. For PRAK (Homo sapiens (Human), UniProt Q8IW41), give percentage inhibition of PRAK of the listed molecule: c1cc2[nH]nc3c2c(n1)N(C1CCOCC1)CCC3
Ans. 0

* * *

Molecular target: PKBa (Homo sapiens (Human), UniProt P31749, S473D)
Sequence (P31749 118-480 S473D): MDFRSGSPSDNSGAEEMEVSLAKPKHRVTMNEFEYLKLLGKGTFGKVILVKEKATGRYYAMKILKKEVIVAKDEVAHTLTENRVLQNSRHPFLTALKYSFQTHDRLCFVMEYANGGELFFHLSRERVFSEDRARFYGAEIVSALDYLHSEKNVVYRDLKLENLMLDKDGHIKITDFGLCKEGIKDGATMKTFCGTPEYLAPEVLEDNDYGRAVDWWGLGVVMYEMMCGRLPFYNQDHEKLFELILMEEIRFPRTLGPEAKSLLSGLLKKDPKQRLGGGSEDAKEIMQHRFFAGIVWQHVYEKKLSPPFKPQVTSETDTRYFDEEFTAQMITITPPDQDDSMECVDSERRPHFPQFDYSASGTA
Test: PKBa kinase selectivity assay
Format: biochemical
Settings: 1 μM inhibitor concentration
Kindly supply the reported percentage inhibition of PKBa values for the records listed here.
Express it in percentage; write the number only.

Qu. Supply measured percentage inhibition of PKBa of c1cc2[nH]nc3c2c(n1)N(C1CCOCC1)CCC3 in your reply.
Ans. 0

Qu. Supply measured percentage inhibition of PKBa of CN1CCC(N2Cc3ccccc3-c3n[nH]c4ccnc2c34)CC1 in your reply.
Ans. 1

Qu. Supply measured percentage inhibition of PKBa of c1cc2[nH]nc3c2c(n1)N(C1CCCC1)CCC3 in your reply.
Ans. 0

Qu. Supply measured percentage inhibition of PKBa of c1cc2[nH]nc3c2c(n1)N(C1CCC1)CCC3 in your reply.
Ans. 3

Qu. Supply measured percentage inhibition of PKBa of CC(C)n1ncc2c1CN(C1CCN(C)CC1)c1nccc3[nH]nc-2c13 in your reply.
Ans. 0

* * *

Tested on: Lck
Assay: Lck kinase selectivity assay
Assay type: biochemical
Details: 1 μM inhibitor concentration
MEASURED ENDPOINT: percentage inhibition of Lck (percentage)
Express it in percentage; write the number only.

Qu. For Lck, give percentage inhibition of Lck of the listed compound: CN1CCC(N2Cc3ccccc3-c3n[nH]c4ccnc2c34)CC1
Ans. 6

Qu. For Lck, give percentage inhibition of Lck of the listed compound: c1cc2[nH]nc3c2c(n1)N(C1CCOCC1)CCC3
Ans. 0

Qu. For Lck, give percentage inhibition of Lck of the listed compound: CC(C)n1ncc2c1CN(C1CCN(C)CC1)c1nccc3[nH]nc-2c13
Ans. 0

Qu. For Lck, give percentage inhibition of Lck of the listed compound: c1cc2[nH]nc3c2c(n1)N(C1CCC1)CCC3
Ans. 0
